Each recorded value in this set is attributed to ChEMBL document CHEMBL3611969.

System: Staphylococcus epidermidis
Assay: Antibacterial activity against Staphylococcus epidermidis ATCC 49134 after 18 hrs by serial microdilution method
Assay type: functional
Conditions: ATCC 49134, 18 h
Entries and their MIC values follow.
outcome-measure: MIC (µg/mL)

{"molecule": "CO[C@H]1/C=C/O[C@@]2(C)Oc3c(C)c(O)c4c(O)c(c(CNCC5CCOCC5)c(O)c4c3C2=O)NC(=O)/C(C)=C\\C=C\\[C@H](C)[C@H](O)[C@@H](C)[C@@H](O)[C@@H](C)[C@H](OC(C)=O)[C@@H]1C", "qualifier": "=", "result": 0.25}
{"molecule": "CO[C@H]1/C=C/O[C@@]2(C)Oc3c(C)c(O)c4c(O)c(c(CN5CCOCCOCCOCCOCC5)c(O)c4c3C2=O)NC(=O)/C(C)=C\\C=C\\[C@H](C)[C@H](O)[C@@H](C)[C@@H](O)[C@@H](C)[C@H](OC(C)=O)[C@@H]1C", "qualifier": ">", "result": 4}
{"molecule": "CO[C@H]1/C=C/O[C@@]2(C)Oc3c(C)c(O)c4c(O)c(c(CNc5ccc6c(c5)OCCOCCOCCOCCO6)c(O)c4c3C2=O)NC(=O)/C(C)=C\\C=C\\[C@H](C)[C@H](O)[C@@H](C)[C@@H](O)[C@@H](C)[C@H](OC(C)=O)[C@@H]1C", "qualifier": "=", "result": 0.5}
{"molecule": "CO[C@H]1/C=C/O[C@@]2(C)Oc3c(C)c(O)c4c(O)c(c(CNc5ccc6c(c5)OCCOCCOCCOCCOCCO6)c(O)c4c3C2=O)NC(=O)/C(C)=C\\C=C\\[C@H](C)[C@H](O)[C@@H](C)[C@@H](O)[C@@H](C)[C@H](OC(C)=O)[C@@H]1C", "qualifier": "=", "result": 0.5}
{"molecule": "CO[C@H]1/C=C/O[C@@]2(C)Oc3c(C)c(O)c4c(O)c(c(CNCC5COCCOCCOCCOCCO5)c(O)c4c3C2=O)NC(=O)/C(C)=C\\C=C\\[C@H](C)[C@H](O)[C@@H](C)[C@@H](O)[C@@H](C)[C@H](OC(C)=O)[C@@H]1C (stereo not given in full)", "qualifier": "=", "result": 2}
{"molecule": "CO[C@H]1/C=C/O[C@@]2(C)Oc3c(C)c(O)c4c(O)c(c(/C=N/N5CCN(C)CC5)c(O)c4c3C2=O)NC(=O)/C(C)=C\\C=C\\[C@H](C)[C@H](O)[C@@H](C)[C@@H](O)[C@@H](C)[C@H](OC(C)=O)[C@@H]1C [RIFAMPIN]", "qualifier": "=", "result": 0.008}
{"molecule": "NNC(=O)c1ccncc1 [ISONIAZID]", "qualifier": ">", "result": 4}
{"molecule": "CO[C@H]1/C=C/O[C@@]2(C)Oc3c(C)c(O)c4c(O)c(c(CNc5ccc6c(c5)OCCOCCOc5ccccc5OCCOCCO6)c(O)c4c3C2=O)NC(=O)/C(C)=C\\C=C\\[C@H](C)[C@H](O)[C@@H](C)[C@@H](O)[C@@H](C)[C@H](OC(C)=O)[C@@H]1C", "qualifier": "=", "result": 0.5}
{"molecule": "[Na+].[O-][Cl+3]([O-])([O-])[O-] [SODIUM PERCHLORATE]", "qualifier": ">", "result": 4}
{"molecule": "CO[C@H]1/C=C/O[C@@]2(C)Oc3c(C)c(O)c4c(O)c(c(CNC5CCOCC5)c(O)c4c3C2=O)NC(=O)/C(C)=C\\C=C\\[C@H](C)[C@H](O)[C@@H](C)[C@@H](O)[C@@H](C)[C@H](OC(C)=O)[C@@H]1C", "qualifier": "=", "result": 0.25}
